assay: E. coli DRC41 culture turbidity changes, primary screen, E. coli filamentation inducer project, strain DRC41, OD650, 48 h (AID 1152);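 note: E. coli MC1000 strain DRC41 lacking acrAB efflux pump and sulA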; details: E. coli DRC41 (acrAB sulA), higher = more signal, called active from +8 up or from −8 down
Can you tell me z-score for the items I'm about to list?
Give bare numbers.

CC(C)(C)N1C(=O)[C@H]2[C@H]3[C@H](O)[C@H](O)CC(=NOC[C@@H](O)COCc4ccco4)[C@@H]3CC[C@H]2C1=O :: 0.0978

Hey, can you go through the list below and give me z-score for every item?
1. COc1ccc(COC(=O)NN=C2C[C@@H](O)[C@@H](O)[C@@H]3[C@@H]4C(=O)N(c5cccc(Oc6ccccc6)c5)C(=O)[C@@H]4CC[C@H]23)cc1
2. CCOC(=O)[C@H](Cc1ccccc1)NC(=O)CCC1CC(OC(=O)NCCc2ccc(F)cc2)CC2(CCCC(COC(=O)NCCOc3ccccc3)O2)O1 (some centres undefined)
3. O=C(NN=C1C[C@@H](O)[C@@H](O)[C@@H]2[C@@H]3C(=O)N(Cc4ccc5c(c4)OCO5)C(=O)[C@@H]3CC[C@@H]12)OCc1ccccc1
4. O=C1C=C[C@@H](O)[C@@H]2[C@@H]3C(=O)N(c4cccc(Oc5ccccc5)c4)C(=O)[C@@H]3CC[C@@H]12

[0.249, -0.558, -0.989, -1.65]

Hey, can you go through the list below and give me z-score for every item?
1. CSCC[C@@H]1NC(=O)CC=C[C@@H](C)COC(=O)[C@H](C)COC1=O
2. C=CC[C@@H]1C=C[C@H](ON=CC[C@@H]2C=C[C@H](OC(C)=O)[C@@H](COC(C)=O)O2)[C@@H](CO)O1
3. CO[C@H]1COC(=O)CC=C[C@H](C)[C@H](OC)COC(=O)[C@@H](C)NC(=O)CC=C[C@@H]1C

1: 0.832; 2: 0.4; 3: -0.619

Consider the molecule "C[C@H]1CC[C@@H](C(=O)O)N[C@@H]1c1cccc(N2CCCC2=O)c1" and give its recorded z-score.
1.04

----------
test: P. aeruginosa biofilm formation inhibitors, primary screen, PAO1 strain, BacTiter-Glo luminescence, LB-PBS (AID 1144); conditions: 12 h, higher = more signal
# z-score >= -0.8 gives rule met, anything below gives rule not met

Solved cases (3 shown):
CCc1cc2c(nc1CC)CCN(CCC(C)=NOC(C)CN1CCCCc3nc(C)c(C)cc31)C2 (configuration not stated) :: rule met
CCc1cc2c(nc1CC)CCN(CCC(C)=NO[C@@H]1O[C@H](COC(C)=O)[C@@H](OC(C)=O)[C@H](OC(C)=O)[C@H]1OC(C)=O)C2 :: rule not met
COc1ccc2c(c1)O[C@@H](c1cccc(C(F)(F)F)c1)[C@H](O)C2=O :: rule not met

Does the reported z-score for "COc1ccc(COC(=O)NN=C2C[C@@H](O)[C@@H](O)[C@@H]3[C@@H]4C(=O)N(c5cccc(Oc6ccccc6)c5)C(=O)[C@@H]4CC[C@H]23)cc1" fall at or above the -0.8 mark?
rule met

Does the reported z-score for "CC(C)CON=C1C[C@@H](O)[C@@H](O)[C@@H]2[C@@H]3C(=O)N(Cc4ccccc4)C(=O)[C@@H]3CC[C@H]12" fall at or above the -0.8 mark?
rule not met

Does the reported z-score for "CC(CCN1CCCc2nc(C)c(C)cc21)=NOC[C@@H](C)[C@H](OCc1ccccc1)C(C)C" fall at or above the -0.8 mark?
rule met

Does the reported z-score for "CCOC(=O)CCN1C(=O)[C@H]2[C@H]3[C@H](O)[C@H](O)CC(=NOCC(C)C)[C@@H]3CC[C@H]2C1=O" fall at or above the -0.8 mark?
rule met
